Measured log10(EC50) by item
Test system: INS-1 cells
Test method notes: Cell survival assay, intracellular ATP (CellTiter-Glo), INS-1 cells treated with Tm
Type: cell-based, rat
Stated conditions: Table 5; INS-1 cell viability, Tm 0.1 μg/mL, 72 h; read-out: EC50
# log10 transformed; quantity=EC50; unit=µM

[in] Item O=C(NCc1ccc(Cl)cc1)c1cccc(CN2CCCCC2)c1 [Compound 12e] has what recorded log10(EC50)?
[out] -0.62

[in] Item O=C(NCc1cccc(Cl)c1)c1ccc(CN2CCCCC2)cc1 [Compound 12g] has what recorded log10(EC50)?
[out] 0.34

[in] Item O=C(NCc1cccc(C(F)(F)F)c1)c1cccc(CN2CCCCC2)c1 [Compound 13c] has what recorded log10(EC50)?
[out] -0.61

[in] Item O=C(NCc1cccc(Cl)c1)c1cccc(CN2CCCCC2)c1 [Compound 12d] has what recorded log10(EC50)?
[out] -0.39

[in] Item O=C(NCc1ccccc1Cl)c1cccc(CN2CCCCC2)c1 [Compound 12c] has what recorded log10(EC50)?
[out] 0.31

[in] Item COc1ccc(CNC(=O)c2cccc(CN3CCCCC3)c2)cc1 [Compound 13b] has what recorded log10(EC50)?
[out] 0.05

[in] Item O=C(NCc1cccc(Br)c1)c1ccc(CN2CCCCC2)cc1 [Compound 12h] has what recorded log10(EC50)?
[out] 0.69

[in] Item O=C(NCc1ccccc1Cl)c1ccc(CN2CCCCC2)cc1 [Compound 12f] has what recorded log10(EC50)?
[out] 1.11

[in] Item O=C(NCc1ccc(Cl)cc1)c1ccccc1CN1CCCCC1 [Compound 12a] has what recorded log10(EC50)?
[out] 0.84

[in] Item O=C(NCc1ccccc1)c1cccc(CN2CCCCC2)c1 [Compound 12b] has what recorded log10(EC50)?
[out] -0.45

[in] Item COc1cccc(CNC(=O)c2cccc(CN3CCCCC3)c2)c1 [Compound 13a] has what recorded log10(EC50)?
[out] -0.02
